Would you mind telling me the reported EC_CLB30016 MITC95 of each entry?
# Tested on: Escherichia coli expressing NDM-1 (CLB30016)
# Assay type: cell-based
# CONDITION INFO: lowest concentration inhibiting 95% of bacterial growth; in the presence of β lactamase inhibitor (BLi, Relebactam); 22 hours, 35±2° C., OD600
Please state the figure in µM; there is no need to write the unit.

What EC_CLB30016 MITC95 value was documented for this compound, CC1(C)[C@H](NC(=O)/C(=N\O[C@](C)(C(=O)O)[C@H]2CCc3cc(-c4ccc(NCCCN)[n+](CCCN)c4)ccc3O2)c2csc(N)n2)C(=O)N1OS(=O)(=O)[O-].O=CO ? 6.25

Can you handle CC1(C)[C@H](NC(=O)/C(=N\O[C@](C)(C(=O)O)[C@H]2CCc3cc(-c4cnc(NC[C@H](O)CN)[n+](CC5CNC5)c4)ccc3O2)c2csc(N)n2)C(=O)N1OS(=O)(=O)[O-].O=CO next? 6.25

Moving on to the next compound: C[n+]1cc(-c2ccc3c(c2)OCC(CO/N=C(\C(=O)N[C@@H]2C(=O)N(OS(=O)(=O)[O-])C2(C)C)c2csc(N)n2)C3)ccc1NCCN.O=C(O)C(F)(F)F (single isomer, unassigned) [Example 37B] 100

And for CC1(C)[C@H](NC(=O)/C(=N\O[C@](C)(C(=O)O)[C@H]2CCc3cc(-c4ccc5[n+](c4)CC(CN)CN5CCN)ccc3O2)c2csc(N)n2)C(=O)N1OS(=O)(=O)[O-].O=CO (stereo partly drawn) ? 12.5

Lookup CC1(C)[C@H](NC(=O)/C(=N\O[C@](C)(C(=O)O)[C@H]2CCc3cc(C4CNC(NCCN)=N4)ccc3O2)c2csc(N)n2)C(=O)N1OS(=O)(=O)O (single isomer, unassigned) [Example 26] 100

Next compound: C[n+]1cc(-c2ccc3c(c2)CC[C@H]([C@](C)(O/N=C(\C(=O)N[C@@H]2C(=O)N(OS(=O)(=O)[O-])C2(C)C)c2csc(N)n2)C(=O)O)O3)cnc1NC[C@H](O)CN.O=CO 6.25

Now consider CC1(C)[C@H](NC(=O)/C(=N\O[C@](C)(C(=O)O)C2CCc3cc(-c4cn(C[C@@H](O)CN)[n+](CCCN)c4)ccc3O2)c2csc(N)n2)C(=O)N1OS(=O)(=O)[O-] (mixture of isomers) . 100

====

# System: Escherichia coli expressing NDM-1 (CLB30016)
# Format: cell-based
# CONDITION INFO: lowest concentration inhibiting 95% of bacterial growth; in the presence of β lactamase inhibitor (BLi, Relebactam); 22 hours, 35±2° C., OD600
Consider the following compounds; for each one, report its EC_CLB30016 MITC95.
Give the number; µM is assumed, so skip it.

Consider the compound shown here: C[n+]1cc(-c2ccc3c(c2)CC[C@H](CO/N=C(\C(=O)N[C@@H]2C(=O)N(OS(=O)(=O)[O-])C2(C)C)c2csc(N)n2)O3)ccc1NCCN [Example 35] What is its recorded EC_CLB30016 MITC95? 25

What do you get for C[n+]1cc(-c2ccc3c(c2)CC[C@H]([C@](C)(O/N=C(\C(=O)N[C@@H]2C(=O)N(OS(=O)(=O)[O-])C2(C)C)c2csc(N)n2)C(=O)O)O3)cn1C[C@H](O)CN [Example 7] ? 25

Again, but for CC1(C)[C@H](NC(=O)/C(=N/O[C@](C)(C(=O)O)[C@H]2CCc3cc(C4CN=C(NC[C@H](O)CN)NC4)ccc3O2)c2csc(N)n2)C(=O)N1OS(=O)(=O)O.O=CO (stereo partly shown) [Example 28] 6.25

Please do the same for CC1(C)[C@H](NC(=O)/C(=N\O[C@](C)(C(=O)O)[C@H]2CCc3cc(C4CN=C(NC[C@@H](O)CN)NC4)ccc3O2)c2csc(N)n2)C(=O)N1OS(=O)(=O)O.O=CO (stereo partly shown) [Example 29] as well. 25

Input C[n+]1cc(-c2ccc3c(c2)CC[C@H]([C@](C)(O/N=C(\C(=O)N[C@@H]2C(=O)N(OS(=O)(=O)[O-])C2(C)C)c2csc(N)n2)C(=O)O)O3)cnc1NC(CN)CN.O=CO [Example 24] 3.125

Same for CC1(C)[C@H](NC(=O)/C(=N\O[C@](C)(C(=O)O)[C@H]2CCc3cc(C4CN=C(NCCCN)NC4)ccc3O2)c2csc(N)n2)C(=O)N1OS(=O)(=O)O (stereo partly shown) [Example 27] 12.5

Follow-up item: C[n+]1cc(-c2ccc3c(c2)CC[C@H]([C@](C)(O/N=C(\C(=O)N[C@@H]2C(=O)N(OS(=O)(=O)[O-])C2(C)C)c2csc(N)n2)C(=O)O)O3)ccc1CC(CN)CN.O=CO [Example 16] 6.25

Continue with C[n+]1cc(-c2ccc3c(c2)OCC(CO/N=C(\C(=O)N[C@@H]2C(=O)N(OS(=O)(=O)[O-])C2(C)C)c2csc(N)n2)C3)ccc1NCCN.O=C(O)C(F)(F)F (single isomer, unassigned) [Example 37A] 12.5

Now this one: CC1(C)[C@H](NC(=O)/C(=N\O[C@](C)(C(=O)O)[C@H]2CCc3cc(-c4cnc(NC[C@@H](O)CN)[n+](CC5CNC5)c4)ccc3O2)c2csc(N)n2)C(=O)N1OS(=O)(=O)[O-].O=CO [Example 20] 6.25

Request: C[n+]1cc(-c2ccc3c(c2)CC[C@H]([C@](C)(O/N=C(\C(=O)N[C@@H]2C(=O)N(OS(=O)(=O)[O-])C2(C)C)c2csc(N)n2)C(=O)O)O3)cnc1NC[C@@H](O)CN.O=CO [Example 18] 6.25

Hello, the source for this data is patent US11433055B2, in case you need it.
